test system: RAW-Dual (murine macrophage reporter line); test: NF-kB reporter (SEAP) activity fold change vs agonist alone; higher = enhanced NF-kB activity; conditions: modulator concentration 10 µM; agonist: LPS 0.1 ug/mL
Decision: NF-kB reporter >= 1 yields rule met, all other cases yield rule not met.

Cc1cc(C(=O)O)n[nH]1	rule not met
CCC(C)(Oc1ccc(C2(c3ccc(OC(C)(CC)C(=O)O)cc3)CCCCC2)cc1)C(=O)O (stereo not drawn)	rule met
COc1ccc(Cn2c(SC)nc3c(c2=O)C2(CCCCC2)Cc2ccccc2-3)cc1	rule not met
S=C(NC12CC3CC(CC(C3)C1)C2)N1CCOCC1	rule met
CCOc1ccc(N2CCN(CC(=O)O)C2=O)cc1	rule met
CCN[C@H]1CN(CCCOC)S(=O)(=O)c2sc(S(N)(=O)=O)cc21	rule met
CC(C)Oc1cccc(C(=O)NC(=S)N2CCN(c3ccc([N+](=O)[O-])cc3)CC2)c1	rule not met
O=C(c1ccc(F)c(F)c1Nc1ccc(I)cc1F)N1CC(O)([C@@H]2CCCCN2)C1	rule not met

# input Could you tell me if the measured NF-kB reporter of `CCOC(=O)CNS(=O)(=O)c1ccc([N+](=O)[O-])cc1` reaches 1 or more?
# output rule met

# input Confirm if NF-kB reporter reported for the molecule `N#Cc1ccnc(N2C(=O)CC[C@H]2C(=O)N(c2cncc(F)c2)[C@H](C(=O)NC2CC(F)(F)C2)c2ccccc2Cl)c1` is 1 or above.
# output rule met

# input Record `CCN1CCN(Cc2ccc(Nc3ncc(F)c(-c4cc(F)c5nc(C)n(C(C)C)c5c4)n3)nc2)CC1.CS(=O)(=O)O` ; criterion: NF-kB reporter no lower than 1. Met?
# output rule not met

====

system: RAW-Dual (murine macrophage reporter line); assay: NF-kB reporter (SEAP) activity fold change vs agonist alone; higher = enhanced NF-kB activity; conditions: modulator concentration 10 µM; agonist: LPS 0.1 ug/mL
property: NF-kB reporter

Hey, can you go through the list below and give me NF-kB reporter for every item?
1. O=C(Cn1cnc(-c2ccc(Cl)cc2)cc1=O)N1CCOCC1
2. CCN(CC)c1ccc(C=Nc2c(C)cc(C)cc2C)cc1
3. Cc1c(Cl)ccc2c1NC(C(=O)O)C1CC=CC21 (stereo unspecified)
4. CCOC(=O)c1ccc(N2C(=O)CC(N3CCN(c4ccc([N+](=O)[O-])cc4)CC3)C2=O)cc1 (stereo unspecified)
5. CN1CC(c2ccccc2)OC1=O (stereo unspecified)

# output
1. 0.924
2. 1.03
3. 1.05
4. 1.08
5. 0.949

# input For `Cc1nc(Nc2ncc(C(=O)Nc3c(C)cccc3Cl)s2)cc(N2CCN(CCO)CC2)n1.Cl` , what is its reported NF-kB reporter?
# output 1.01

====

Answer each item with its documented IRF reporter.
tested on: RAW-Dual (murine macrophage reporter line); assay: IRF reporter (Lucia luciferase) activity fold change vs agonist alone; higher = enhanced IRF activity; settings: modulator concentration 10 µM; agonist: 3'3'-cGAMP 10 ug/mL
Numbers only.

Consider the reported IRF reporter for these compounds:
O=C1C(Cl)=C(N2CCCCC2)C(=O)N1c1cc(Cl)c(Cl)cc1Cl	0.352
Cc1cc(C(O)CCNC(=O)Nc2ccc(Cl)c(Cl)c2)c(C)o1 (stereo unspecified)	0.835
NCCCC[C@H](N[C@@H](CCc1ccccc1)C(=O)O)C(=O)N1CCC[C@H]1C(=O)O	1.26
CCOc1nc2cccc(C(=O)O)c2n1Cc1ccc(-c2ccccc2-c2nn[nH]n2)cc1	0.907
CC(=O)N1CCN(c2ccc(OCC3COC(Cn4ccnc4)(c4ccc(Cl)cc4Cl)O3)cc2)CC1 (stereo unspecified)	1.07
COc1ccc(Br)cc1S(=O)(=O)NCc1ccccc1	1.18
O=C(O)CCCCC1SCC2NC(=O)NC21 (stereo unspecified)	0.953
CC1CC2(NC(=O)NC2=O)C(C)CN1C (stereo unspecified)	0.99
Brc1ccc2ncnc(NCc3ccco3)c2c1	0.373
O=C(O)c1cc(O)ccc1O	1.03

Moving on to the next compound.
# input Value wanted: IRF reporter (RAW-Dual (murine macrophage reporter line)) of entry `COC(=O)CSc1nc(O)c2c(C)c(C)sc2n1`
# output 0.984

====

tested on: RAW-Dual (murine macrophage reporter line); experiment: NF-kB reporter (SEAP) activity fold change vs agonist alone; higher = enhanced NF-kB activity; settings: modulator concentration 10 µM; agonist: CpG ODN 1826 0.5 ug/mL
property: NF-kB reporter

Quick batch: NF-kB reporter for everything below.
1. Cc1ccc(F)c(NC(=O)Nc2ccc(-c3cccc4[nH]nc(N)c34)cc2)c1
2. CN(C(=O)c1cncc(F)c1)C1CN(c2ccc3nnc(C4CC4)n3n2)C1

# output
0.692
0.937

====

system: RAW-Dual (murine macrophage reporter line); assay: viability score (confluency relative to resting cells, overnight) (fraction); higher = more viable, active = viable (0.7 or more); conditions: modulator concentration 10 µM
property: viability score
One number for each entry.

// batch mode: one viability score value per listed entry
1. Ic1ccc(N=Cc2ccc(C=Nc3ccc(I)cc3)cc2)cc1
2. NC(=O)c1c(NC(=O)CN2C(=O)C(=Cc3ccc(Cl)cc3Cl)SC2=S)sc2c1CCCC2
3. CC(NC(=O)C(=O)Nc1ccc(F)cc1)c1ccccc1 (stereo unspecified)
4. CCN(CC)C(=O)C(=Cc1ccc(Br)cc1)NC(=O)c1ccccc1OC

# output
[1.02, 0.997, 0.994, 1.01]

Dear colleague, could you send me viability score for each of the items below? Thanks.
1. Cl.Nc1c2c(nc3ccccc13)CCCC2
2. Cc1ccn2c(-c3csc(NCc4ccccc4)n3)c(C)nc2c1
3. Cl.O[C@@H](c1cc(C(F)(F)F)nc2c(C(F)(F)F)cccc12)[C@H]1CCCCN1
4. O=C(Nc1ccccn1)NC1CCS(=O)(=O)C1 (stereo unspecified)
5. COc1cc(C2C(C(=O)c3ccccc3)=C(O)C(=O)N2c2cccnc2)ccc1O (stereo unspecified)
6. CC(=NOCON=C(C)c1ccc(F)cc1F)c1ccc(F)cc1F
7. COc1ccc(C=Nc2ccc(OC(C)=O)cc2)cc1

# output
1. 0.995
2. 1.01
3. 0.137
4. 0.948
5. 0.97
6. 1
7. 1

====

test system: RAW-Dual (murine macrophage reporter line); experiment: NF-kB reporter (SEAP) activity fold change vs agonist alone; higher = enhanced NF-kB activity; conditions: modulator concentration 10 µM; agonist: LPS 0.1 ug/mL
Could you please report measured NF-kB reporter for the items listed next?
Answers are plain numbers.

COc1ccc(-c2cc(C(F)F)nn2-c2ccc(S(N)(=O)=O)cc2)cc1F	0.98
Cl.Cl.OCCN1CCN(CC/C=C2/c3ccccc3Sc3ccc(C(F)(F)F)cc32)CC1	1.03
CCC(NC(C)C)C(O)c1ccc(O)c(O)c1 (stereo not given)	1.13

Hello, I would appreciate it if you could give NF-kB reporter for each entry below.
1. N#Cc1c(N=Cc2ccc(Br)cc2)sc2c1CCCC2
2. OCCN1CCN(CCCN2c3ccccc3C=Cc3ccccc32)CC1
3. O=C(NC1CCN(c2ccc(C(F)(F)F)cn2)C1)c1nc2ccccc2s1 (stereo not given)
4. CCN1CCN(c2nc3c(c(=O)[nH]c(=O)n3C)n2CC(O)COc2cc(C)ccc2C(C)C)CC1 (stereo not given)
5. CCOC(=O)C1=C(C)NC2=C(C(=O)CC(C)(C)C2)C1c1ccccc1Br (stereo not given)

# output
[1, 1, 1.05, 1.08, 1.07]

Batch request: NF-kB reporter per item, same order as input.
1. CCCc1nc2ccccc2c(NC(=O)CN2CCOCC2)c1CC.O=C(O)C(=O)O
2. Cc1c(C(=O)OC(C)C)sc(NC(=O)C(C)(C)C)c1C(=O)OC(C)C

# output
1. 1.12
2. 0.908

====

Kindly state IRF reporter for each of the entries shown.
system: RAW-Dual (murine macrophage reporter line); experiment: IRF reporter (Lucia luciferase) activity fold change vs agonist alone; higher = enhanced IRF activity; conditions: modulator concentration 10 µM; agonist: LPS 0.1 ug/mL
Numbers only.

Completed entries (count: 5):
CN1CC(=O)N2[C@H](c3ccc4c(c3)OCO4)c3[nH]c4ccccc4c3C[C@@H]2C1=O	1.01
CCOCC(=O)Nc1ccc(N2CCCCC2=O)c(C)c1	1.06
COC(CNS(=O)(=O)c1ccccc1Br)c1ccc(Cl)s1 (centres undefined)	1.01
CCCCCOC(=O)COc1ccc(S(=O)(=O)c2ccc(OCC(=O)OCCCCC)cc2)cc1	1.33
CC(C)OC(=O)c1c(NC(=O)C2CC=CCC2C(=O)O)sc2c1CCCC2 (centres undefined)	1.29

Report IRF reporter for each item below.
1. CN(C)CCOC1=Cc2ccccc2Sc2ccc(Cl)cc21
2. COc1ccc(S(=O)(=O)NCc2ccnc(N3CCOCC3)n2)cc1Cl
3. O=C(NCC#CCN1CCc2ccccc2C1)c1cccc(Br)c1
4. Cc1cc(C)c(NC(=O)c2ccc(Oc3nccs3)cc2)c(C)c1
5. COc1ccccc1-c1noc(C2CN(S(=O)(=O)N(C)C)C2)n1
6. CC(C)(C)N1CC(c2nc3ccccc3n2Cc2c(F)cccc2Cl)CC1=O (centres undefined)

# output
1: 0.895; 2: 1.07; 3: 1.14; 4: 0.939; 5: 1.27; 6: 1.15

Below are 5 compounds. Give each one its IRF reporter.
1. O=C(NCC1(O)CCc2ccccc2C1)c1cccc(C(F)(F)F)c1 (centres undefined)
2. COC12C(COC(N)=O)C3=C(C(=O)C(C)=C(N)C3=O)N1CC1NC12 (centres undefined)
3. NC12CC3CC(CC(C3)C1)C2
4. Cc1cc(C)c(S(=O)(=O)N2CCN(C(=O)N(C)C)CC2)c(C)c1
5. Cc1[nH]c2ccc(Br)cc2c(=O)c1CN1CCOCC1

# output
1. 1.09
2. 1.32
3. 1.13
4. 0.802
5. 0.973

Quick one: give me IRF reporter for each item below, same order please.
1. CCS(=O)(=O)c1ccc(-c2cccc(NC(=O)CC3CCCC3)c2)nn1
2. Clc1ccc2c(c1)C(N1CCNCC1)=Nc1ccccc1O2
3. Cc1cc(=O)n2c(-c3cccc(NC(=O)c4ccc(C(F)(F)F)cc4)c3)csc2n1
4. O=C(NC1CCC(Oc2ncc(F)cn2)CC1)c1cccc(F)c1 (centres undefined)
5. O=c1oc2cc(O)ccc2s1
6. COc1cc(C)n(CCNC(=O)c2ccccc2C(F)(F)F)c(=O)c1
7. CCn1cc(C(=O)O)c(=O)c2cc(F)c(N3CCN(C)CC3)cc21.CS(=O)(=O)O

# output
1: 0.973; 2: 1.2; 3: 1.28; 4: 1.08; 5: 0.962; 6: 1.34; 7: 1.45

For every item below, please supply its IRF reporter.
1. CC(C)c1noc(CN2CCC(n3nc(C(F)(F)F)n(C)c3=O)CC2)n1
2. O=C(Nc1ccon1)C1CN(C(=O)COc2ccccc2F)C1
3. CCOc1ccc(C(CN)N2CCOCC2)cc1 (centres undefined)

# output
[1.08, 1.25, 1.33]

// each listed compound needs a value for IRF reporter
1. CC1(C)CCCC2(C)C1CCC1(C)OC(=O)CC12 (centres undefined)
2. N#Cc1cc2c(nc1N1CC(Cn3nc(C4CC4)ccc3=O)C1)CCC2
3. Cc1nc(Nc2ncc(C(=O)Nc3c(C)cccc3Cl)s2)cc(N2CCN(CCO)CC2)n1.Cl
4. C=Cc1c(C)c2cc3nc(cc4[nH]c(cc5nc(cc1[nH]2)C(C)=C5CCC(=O)O)c(CCC(=O)OC)c4C)[C@@]1(C)C3=CC=C(C(=O)OC)C1C(=O)OC (some centres undefined)
5. Brc1ccc(C(Cc2ccccc2)Nc2ccccn2)cc1 (centres undefined)

# output
1. 0.929
2. 1.03
3. 1.22
4. 0.642
5. 1.75

Batch lookup, IRF reporter per entry.
1. COC(=O)C=C1SC(Nc2ccc(Cl)c(Cl)c2)=NC1=O
2. CCOc1ccc2c(c1)C(C)=CC(C)(C)N2
3. CC(=O)Oc1cc(C(F)(F)F)ccc1C(=O)O
4. Cc1ccc(OCCCOc2cccc3cccnc23)c(Br)c1
5. NCCCS(=O)(=O)O
6. Cn1c(=O)cc(N2CCC[C@@H](N)C2)n(Cc2cc(F)ccc2C#N)c1=O
7. CCOC(=O)Cc1cc(OC)c(OC)cc1C(C)=NNc1ccccc1
8. CNC(=O)c1cc(Oc2ccc(NC(=O)Nc3ccc(Cl)c(C(F)(F)F)c3)c(F)c2)ccn1.O

# output
[0.982, 0.967, 1.32, 0.935, 0.978, 0.971, 1.13, 0.0276]

// for each compound below, give its IRF reporter
1. Br.Cc1ccc(Sc2ccccc2N2CCNCC2)c(C)c1
2. Clc1ccc(Cn2c(CN3CCCC3)nc3ccccc32)cc1
3. Cc1ccc(C(=O)N2N=C(c3ccc(Cl)cc3)CC2(O)C(F)(F)F)o1 (centres undefined)
4. Nc1ccn([C@@H]2O[C@H](CO)[C@@H](O)[C@@H]2O)c(=O)n1
5. CCCCC1=NC2(CCCC2)C(=O)N1Cc1ccc(-c2ccccc2-c2nn[nH]n2)cc1

# output
[1.27, 1.07, 1.33, 1.08, 1.01]
